Protocol text: Cytotoxicity against human NCI-H322M cells assessed as cell growth at 10 uM after 48 hrs by SRB assay relative to control
Assay type: functional
Study conditions: read-out: Activity
Quantity measured: growth at 10 µM (%)
Number only, in %; omit the unit.

If you can, please state the reported growth at 10 µM value of OCCCc1n(Cc2ccc3ccccc3n2)c2ccccc2[n+]1Cc1ccc2ccccc2n1.[Cl-] .
91.7

If you can, please state the reported growth at 10 µM value of COCCc1n(Cc2ccc3ccccc3c2)c2ccccc2[n+]1Cc1ccc2ccccc2c1.[Br-] .
5.25

If you can, please state the reported growth at 10 µM value of CCCCc1n(Cc2ccc3ccccc3c2)c2ccccc2[n+]1Cc1ccc2ccccc2c1.[Br-] .
-82.2

In the following, a different molecule is considered.
If you can, please state the reported growth at 10 µM value of [Br-].c1ccc2cc(Cn3c[n+](Cc4ccc5ccccc5c4)c4ccccc43)ccc2c1 .
34.6

----------
Protocol text: Cytotoxicity against human A549 cells assessed as decrease in cell viability after 72 hrs by MTT assay
Format: functional, cell-based
Study conditions: A549, 72 h
pIC50: −log10 of the molar value.
Quantity measured: pIC50

If you can, please state the reported pIC50 value of O=C(O)c1cc2c(cc1C(=O)O)[n+](Cc1ccc3ccccc3c1)cn2Cc1ccc2ccccc2c1.[Cl-] .
< 4.52

If you can, please state the reported pIC50 value of O=C(O)CCc1n(Cc2ccc3ccccc3c2)c2ccccc2[n+]1Cc1ccc2ccccc2c1.[Cl-] .
< 4.52

If you can, please state the reported pIC50 value of O=c1n(Cc2ccc3ccccc3c2)c2ccccc2n1Cc1ccc2ccccc2c1 .
< 4.52

If you can, please state the reported pIC50 value of CCCCCCCc1n(Cc2ccc3ccccc3c2)c2ccccc2[n+]1Cc1ccc2ccccc2c1.[Br-] .
> 6.00

---
If you can, please state the reported pIC50 value of S=c1n(Cc2ccc3ccccc3c2)c2ccccc2n1Cc1ccc2ccccc2c1 .
< 4.52

----------
Protocol text: Cytotoxicity against human HCC827 cells assessed as decrease in cell viability after 72 hrs by MTT assay
Format: functional, cell-based
Study conditions: HCC827, 72 h
Quantity measured: IC50

For orientation, consider the following solved cases.
If you can, please state the reported IC50 value of O=c1n(Cc2ccc3ccccc3c2)c2ccccc2n1Cc1ccc2ccccc2c1 .
> 30 µM

If you can, please state the reported IC50 value of O=C(O)CCc1n(Cc2ccc3ccccc3c2)c2ccccc2[n+]1Cc1ccc2ccccc2c1.[Cl-] .
> 30 µM

If you can, please state the reported IC50 value of CCCCCCCc1n(Cc2ccc3ccccc3c2)c2ccccc2[n+]1Cc1ccc2ccccc2c1.[Br-] .
< 1 µM

If you can, please state the reported IC50 value of O=C(O)c1cc2c(cc1C(=O)O)[n+](Cc1ccc3ccccc3c1)cn2Cc1ccc2ccccc2c1.[Cl-] .
> 30 µM

In the following, a different molecule is considered.
If you can, please state the reported IC50 value of S=c1n(Cc2ccc3ccccc3c2)c2ccccc2n1Cc1ccc2ccccc2c1 .
> 30 µM
